Below, each entry is listed alongside its reported viability at 72 h, 50 µM.
Assay: Cytotoxicity against human HepG2 cells assessed as cell viability at 50 uM measured after 72 hrs by MTT assay relative to control
Type: cell-based
Details: read-out: Activity
Entry rule: numbers only, all in %.

Clc1ccc(/N=C/c2ccc3[nH]ncc3c2)cc1Cl: 80.6

Task: Any idea what viability at 72 h, 50 µM was measured for O=C(Nc1ccc(Cl)c(Cl)c1)c1ccc2[nH]ncc2c1 ?
Result: 66.3

----------
Biological target: Amine oxidase [flavin-containing] B (Homo sapiens)
Sequence (P27338 whole entry): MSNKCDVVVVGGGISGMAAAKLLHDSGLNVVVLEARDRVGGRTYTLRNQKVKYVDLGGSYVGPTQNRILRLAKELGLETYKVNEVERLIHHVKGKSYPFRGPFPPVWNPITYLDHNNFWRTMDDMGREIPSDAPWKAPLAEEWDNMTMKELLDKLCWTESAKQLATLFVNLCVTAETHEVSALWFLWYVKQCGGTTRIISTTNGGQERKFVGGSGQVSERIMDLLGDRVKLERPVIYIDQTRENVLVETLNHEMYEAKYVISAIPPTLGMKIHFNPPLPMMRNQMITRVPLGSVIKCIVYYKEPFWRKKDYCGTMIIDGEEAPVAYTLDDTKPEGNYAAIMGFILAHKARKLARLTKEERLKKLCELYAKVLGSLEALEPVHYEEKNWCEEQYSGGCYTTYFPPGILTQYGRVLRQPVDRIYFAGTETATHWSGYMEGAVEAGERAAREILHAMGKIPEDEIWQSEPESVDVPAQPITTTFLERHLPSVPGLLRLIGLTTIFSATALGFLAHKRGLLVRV
Assay: biochemical
Format: cell-based, BTI-TN-5B1-4
Description: Inhibition of human recombinant MAO-B expressed in baculovirus infected BTI-TN-5B1-4 insect cells assessed as decrease in H2O2 production using p-tyramine as substrate incubated for 20 mins by horse-radish peroxidase/amplex red-based fluorescence method
Below, each entry is listed alongside its reported Ki.
Entry rule: numbers only, all in nM.

COCCn1ncc2cc(/C=N/c3ccc(Cl)c(Cl)c3)ccc21: 0.57
O=C(Nc1cnc(Cl)c(Cl)c1)c1ccc2[nH]ncc2c1: 2.39
Fc1cc(/N=C/c2ccc3[nH]ncc3c2)ccc1Cl: 0.84
Cn1ncc2cc(/C=N/c3ccc(Cl)c(Cl)c3)ccc21: 0.46
Clc1cc(/N=C/c2ccc3[nH]ncc3c2)cnc1Cl: 0.57
O=C(Nc1ccc(Cl)c(F)c1)c1ccc2[nH]ncc2c1: 0.29

Shifting focus to the compound that follows.
Task: Any idea what Ki was measured for Fc1ccc(/N=C/c2ccc3[nH]ncc3c2)cc1Cl ?
Result: 0.93
